# Tested on: PC3
# Experimental protocol: MTT cell viability assay, PC3 prostate carcinoma cells
# Format: cell-based
# Condition notes: Homo sapiens, PC-3; PC3, 24 h
Recorded IC50 by entry

Recorded IC50, per entry:
- Compound: "CC1(C)CCC2(C(=O)O)CCC3(C)C(=CCC4C5(C)CCC(OC6OC(C(=O)O)C(O)C(OC7OCC(O)C(O)C7O)C6O)C(C)(C)C5CCC43C)C2C1 (centres unmarked)"
  IC50: "5.5 µg/mL"
- Compound: "CC1(C)CC[C@]2(C(=O)O)CC[C@]3(C)C(=CC[C@@H]4[C@@]5(C)CC[C@H](O)C(C)(C)[C@@H]5CC[C@]43C)[C@@H]2C1"
  IC50: "> 100 µg/mL"
- Compound: "CC1(C)CCC2(C(=O)O)CCC3(C)C(=CCC4C5(C)CCC(OC6OC(C(=O)O)C(O)C(O)C6O)C(C)(C)C5CCC43C)C2C1 (centres unmarked)"
  IC50: "5.6 µg/mL"
- Compound: "CC1(C)CC[C@]2(C(=O)O[C@@H]3O[C@H](CO)[C@@H](O)[C@H](O)[C@H]3O)CC[C@]3(C)C(=CC[C@@H]4[C@@]5(C)CC[C@H](O[C@@H]6O[C@H](C(=O)O)[C@@H](O)[C@H](O)[C@H]6O)C(C)(C)[C@@H]5CC[C@]43C)[C@@H]2C1"
  IC50: "45.6 µg/mL"

// switching to the query compound
For the compound shown here, COc1cccc2c1C(=O)c1c(O)c3c(c(O)c1C2=O)C[C@@](O)(C(=O)CO)C[C@@H]3O[C@H]1C[C@H](N)[C@H](O)[C@H](C)O1 , give the reported IC50.
> 50 µg/mL

###

Reported values of IC50 for individual entries
# Test system: CCD 841 CoN
# Experimental protocol: MTT cell viability assay, CCD 841 CoN normal colon epithelial cells
# Type: cell-based
# Condition notes: Homo sapiens, 24 h

- Compound: "COc1cccc2c1C(=O)c1c(O)c3c(c(O)c1C2=O)C[C@@](O)(C(=O)CO)C[C@@H]3O[C@H]1C[C@H](N)[C@H](O)[C@H](C)O1 [DOX, Doxorubicin]"
  IC50: "1.7 µg/mL"
- Compound: "CC1(C)CCC2(C(=O)O)CCC3(C)C(=CCC4C5(C)CCC(OC6OC(C(=O)O)C(O)C(O)C6O)C(C)(C)C5CCC43C)C2C1 (centres unmarked) [CE]"
  IC50: "> 100 µg/mL"
- Compound: "CC1(C)CCC2(C(=O)O)CCC3(C)C(=CCC4C5(C)CCC(OC6OC(C(=O)O)C(O)C(OC7OCC(O)C(O)C7O)C6O)C(C)(C)C5CCC43C)C2C1 (centres unmarked) [MIc]"
  IC50: "> 100 µg/mL"
- Compound: "CC1(C)CC[C@]2(C(=O)O[C@@H]3O[C@H](CO)[C@@H](O)[C@H](O)[C@H]3O)CC[C@]3(C)C(=CC[C@@H]4[C@@]5(C)CC[C@H](O[C@@H]6O[C@H](C(=O)O)[C@@H](O)[C@H](O)[C@H]6O)C(C)(C)[C@@H]5CC[C@]43C)[C@@H]2C1 [ChIVa]"
  IC50: "> 100 µg/mL"

With those in mind, consider the next compound.
Query (compound): CC1(C)CC[C@]2(C(=O)O)CC[C@]3(C)C(=CC[C@@H]4[C@@]5(C)CC[C@H](O)C(C)(C)[C@@H]5CC[C@]43C)[C@@H]2C1 [OA, oleanolic acid] ; field requested: IC50
> 100 µg/mL
